System: clinically isolated MDR, XDR, and TDR M. tuberculosis strains
Assay: microbe, parasite or virus in culture
Type: cell-based
Conditions: Mycobacterium tuberculosis, TDR-1
List of MIC values.
Give a bare numeral; the unit µg/mL is implied.

Observe how each entry below is paired with its result.
compound: [H]/N=C(/N)N[C@H]1[C@H](O)[C@@H](O)[C@H](O[C@@H]2O[C@@H](C)[C@](O)(C=O)[C@H]2O[C@@H]2O[C@@H](CO)[C@H](O)[C@@H](O)[C@@H]2NC)[C@@H](N/C(N)=N\[H])[C@@H]1O [STR, streptomycin]
observed measurement: 50
//
compound: COC(=O)[C@@H]1CCC(=O)N1Cc1cc2ccc(OC)cc2c2cc(OC)c(OC)cc12 [PP1S]
observed measurement: 3.3
//
compound: CC[C@@H](CO)NCCN[C@@H](CC)CO [EMB, ethambutol]
observed measurement: 6.3

Shifting focus to the compound that follows.
Exercise: Report MIC for NNC(=O)c1ccncc1 [INH, isoniazid, reference compound] please.
Key: 12.5
